system: COL1A1; experiment: Selectivity index, ratio of CC50 for cytotoxicity against human LX2 cells assessed as reduction in cell viability to IC50 for inhibition of COL1A1 (unknown origin) expressed in human LX2 cells; format: toxicity, cell-based; settings: LX-2 cells, read-out: Ratio CC50/IC50
property_label: selectivity ratio

CCCC[C@@H]1[C@H]2CCCN3CCC[C@@H](CN1C(=O)Nc1c(CC)cccc1CC)[C@@H]23	37.4
CCCC[C@@H]1[C@H]2CCCN3CCC[C@@H](CN1CC(=O)Nc1ccc(Cl)cc1Cl)[C@@H]23	7
CCCC[C@@H]1[C@H]2CCCN3CCC[C@@H](CN1C(=O)Nc1ccc(Cl)c(Cl)c1)[C@@H]23	7.5
CCCC[C@@H]1[C@H]2CCCN3CCC[C@@H](CN1C(=O)Nc1ccccc1C(F)(F)F)[C@@H]23	28.4
CCCC[C@@H]1[C@H]2CCCN3CCC[C@@H](CN1C(=O)Nc1cccc(Cl)c1)[C@@H]23	14.5
CCCC[C@@H]1[C@H]2CCCN3CCC[C@@H](CN1C(=O)Nc1c(C(C)C)cccc1C(C)C)[C@@H]23	6.66
CCCC[C@@H]1[C@H]2CCCN3CCC[C@@H](CN1C(=O)Nc1ccc(Br)cc1)[C@@H]23	7.38
CCCCc1ccc(NC(=O)N2C[C@@H]3CCCN4CCC[C@@H]([C@H]34)[C@H]2CCCC)cc1	14.8
CCCC[C@@H]1[C@H]2CCCN3CCC[C@@H](CN1CC(=O)Nc1cccc(-c4ccccc4)c1)[C@@H]23	7
